molecular target: HCV Core 134-171-TT peptide (ALRZ-9 peptide) (HCV-1); assay: SPR, captured mAb;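 further: Anti-HCV Core mAbs from hybridoma supernatants held on a rabbit anti-mouse IgG CM5 surface, peptide flowed over 3 min then 4 min dissociation, duplicate concentrations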
Assignment: determine reported kon for the given binders.
Form entry: value (M⁻¹ s⁻¹) — number only.

Reported kon for HCV 208B-612 (antibody, V domains shown) VH: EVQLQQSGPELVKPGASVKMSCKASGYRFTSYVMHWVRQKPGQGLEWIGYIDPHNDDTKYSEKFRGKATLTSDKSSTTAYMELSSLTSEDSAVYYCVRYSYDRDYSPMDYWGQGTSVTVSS VL: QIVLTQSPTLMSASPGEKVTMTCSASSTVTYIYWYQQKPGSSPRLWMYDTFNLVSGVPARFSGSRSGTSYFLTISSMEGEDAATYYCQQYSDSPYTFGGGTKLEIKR : what is it?
180000

What would you report for HCV 208A-207 (antibody, V domains shown) VH: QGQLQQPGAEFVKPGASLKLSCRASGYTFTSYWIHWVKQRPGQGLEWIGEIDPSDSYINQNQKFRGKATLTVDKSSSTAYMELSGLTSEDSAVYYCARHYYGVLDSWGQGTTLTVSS VL: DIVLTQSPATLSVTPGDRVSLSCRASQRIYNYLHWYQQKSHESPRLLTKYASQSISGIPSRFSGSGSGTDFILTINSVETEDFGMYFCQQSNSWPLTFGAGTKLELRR ?
310000

Again, but for HCV 208B-281 (antibody, V domains shown) VH: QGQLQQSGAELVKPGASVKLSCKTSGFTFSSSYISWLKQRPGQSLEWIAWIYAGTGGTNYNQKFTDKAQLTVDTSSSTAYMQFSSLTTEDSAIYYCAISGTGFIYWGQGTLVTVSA VL: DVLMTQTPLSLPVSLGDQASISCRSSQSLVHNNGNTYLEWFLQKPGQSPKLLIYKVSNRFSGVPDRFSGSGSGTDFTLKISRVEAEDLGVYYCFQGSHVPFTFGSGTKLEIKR
2200

These entries and their values trace back to patent US9371374.
